System: L1210 leukemia ip in BDF1 mice, survival T/C
test name: NCI In Vivo Anticancer Drug Screen. Data for tumor model L1210 Leukemia (intraperitoneal) in B6D2F1 (BDF1) mice
conditions used: endpoint: mean survival time; dose: 200.0 mg/kg/injection; schedule: Q01DX001 (ip); vehicle: carboxymethylcellulose (CMC); higher = longer survival
Inconclusive results and toxic doses are left out.
outcome measure: T/C

[[record]]
molecule = "Nc1nc2ncc(CCCNc3ccc(C(=O)NC(CCC(=O)O)C(=O)O)cc3)nc2c(=O)[nH]1 (stereo not drawn)"
test_value = "94 % of control"

[[record]]
molecule = "ONC(=NCc1ccccc1)c1ccccc1"
test_value = "103 % of control"

[[record]]
molecule = "CN1CCC2(CC1)C(C#N)C(=O)NC(=O)C2C#N (stereo not drawn)"
test_value = "101 % of control"

[[record]]
molecule = "O=C(O)c1cc([N+](=O)[O-])ccc1O"
test_value = "95 % of control"

[[record]]
molecule = "CCCCCCC1N(Cc2ccccc2OC)CCCN1Cc1ccccc1OC"
test_value = "105 % of control"


Give T/C for all molecules that follow.
1. Cc1nc2ccccc2cc1C#N
2. Oc1cccc2ccc(N/N=C/c3ccnc4c(O)cccc34)nc12

Response line:
["118 % of control", "96 % of control"]

Each molecule below has a reported value. Please supply its T/C.
1. O=c1cc(C2CCCCC2)[nH]c(=S)[nH]1
2. CC(C)=NNC(=O)c1ccccn1
3. CCOC(=O)/C(C#N)=C\c1cc(O)c(O)c(OC)c1
4. Cc1cc(N(CCCl)CCCl)ccc1C=Nc1ccc(-c2nc(Cc3ccccc3)sc2C)cc1
5. O=NN(CCCl)C(=O)NC1CCCCC1
6. CCOC(=O)/C(C#N)=C1/C=C(N)CCC1
7. CC1C=CCC(C)(C)C1 (stereo not drawn)

Response line:
1: 86 % of control; 2: 113 % of control; 3: 97 % of control; 4: 98 % of control; 5: 104 % of control; 6: 94 % of control; 7: 100 % of control

Would you mind listing T/C for each of the following molecules?
1. CCC/C=C(\C)C#CC1=CCCCC1
2. COc1cc(N(CCCl)CCCl)ccc1C=Nc1cccc(Cl)c1
3. C=CC(C)(C)c1c(OC(C)=O)cc2oc3c(OC(C)=O)c(OC(C)=O)cc(CC=C(C)C)c3c(=O)c2c1O
4. Cc1cc(C)c(C(=O)CBr)c(C)c1

Response line:
["94 % of control", "100 % of control", "92 % of control", "106 % of control"]
